Hello, the source for this data is ChEMBL document CHEMBL2062453, in case you need it.

- System: NCI-H522
- measurementDescription: Cytotoxicity against human NCI-H522 cells assessed as cell growth at 10 uM after 48 hrs by SRB assay relative to control
- Assay type: functional
- testContext: NCI-H522, 48 h, read-out: Activity

| compound | growth at 10 µM |
| --- | --- |
| CSC1=Nc2c(c(C)c(-c3ccccc3)n2CCCN2CCCCC2)C2=NC(=O)CC(C)N12 (centres undefined) | 36% |
| CSC1=Nc2c(c(C)c(-c3ccccc3)n2CCCC(=O)O)C2=NC(=O)CN12 | 84% |
| CCOC(=O)CCCn1c(C)c(C)c2c1N=C(SC)N1CC(=O)N=C21 | 97% |
| CSC1=Nc2c(c(C)c(-c3ccccc3)n2CCCN2CCN(C)CC2)C2=NC(=O)CN12 | 85% |

* * *

Catalogue of compounds with associated growth at 10 µM
- Tested on: SN12C
- measurementDescription: Cytotoxicity against human SN12C cells assessed as cell growth at 10 uM after 48 hrs by SRB assay relative to control
- Format: functional
- testContext: read-out: Activity
measurementLabel: growth at 10 µM (%)

| compound | measurementLabel | reportedValue |
| --- | --- | --- |
| CSC1=Nc2c(c(C)c(C)n2CCCC(=O)NCCc2cnc[nH]2)C2=NC(=O)CN12 | growth at 10 µM | 100 |
| CSC1=Nc2c(c(C)c(-c3ccccc3)n2CCCN2CCN(C)CC2)C2=NC(=O)CN12 | growth at 10 µM | 96 |
| CCOC(=O)CCCn1c2c(c(C)c1-c1ccccc1)C1=NC(=O)CN1C(SC)=N2 | growth at 10 µM | 127 |
| CSC1=Nc2c(c(C)c(-c3ccccc3)n2CCCC(=O)O)C2=NC(=O)CN12 | growth at 10 µM | 105 |
| CCOC(=O)CCCn1c(C)c(C)c2c1N=C(SC)N1CC(=O)N=C21 | growth at 10 µM | 110 |
| COC(=O)C(Cc1cnc[nH]1)NC(=O)CCCn1c(C)c(C)c2c1N=C(SC)N1CC(=O)N=C21 (centres undefined) | growth at 10 µM | 107 |
| CSC1=Nc2c(c(C)c(C)n2CCCC(=O)O)C2=NC(=O)CN12 | growth at 10 µM | 115 |
| CSC1=Nc2c(c(C)c(-c3ccccc3)n2CCCCl)C2=NC(=O)CN12 | growth at 10 µM | 86 |
| CSC1=Nc2c(c(C)c(-c3ccccc3)n2CCCN2CCCCC2)C2=NC(=O)CC(C)N12 (centres undefined) | growth at 10 µM | 45 |

* * *

- System: M14
- measurementDescription: Cytotoxicity against human M14 cells assessed as cell growth at 10 uM after 48 hrs by SRB assay relative to control
- Type: functional
- testContext: M14, 48 h, read-out: Activity
Catalogue of molecules with associated growth at 10 µM
measurementLabel: growth at 10 µM (%)

| molecule | unitOfMeasurement | reportedValue |
| --- | --- | --- |
| CSC1=Nc2c(c(C)c(-c3ccccc3)n2CCCN2CCN(C)CC2)C2=NC(=O)CN12 | % | 100 |
| CCOC(=O)CCCn1c(C)c(C)c2c1N=C(SC)N1CC(=O)N=C21 | % | 106 |
| CSC1=Nc2c(c(C)c(-c3ccccc3)n2CCCC(=O)O)C2=NC(=O)CN12 | % | 104 |
| COC(=O)C(Cc1cnc[nH]1)NC(=O)CCCn1c(C)c(C)c2c1N=C(SC)N1CC(=O)N=C21 (centres undefined) | % | 106 |
| CSC1=Nc2c(c(C)c(-c3ccccc3)n2CCCCl)C2=NC(=O)CN12 | % | 31 |
| CSC1=Nc2c(c(C)c(-c3ccccc3)n2CCCN2CCCCC2)C2=NC(=O)CC(C)N12 (centres undefined) | % | 60 |
| CSC1=Nc2c(c(C)c(C)n2CCCC(=O)O)C2=NC(=O)CN12 | % | 110 |
| CCOC(=O)CCCn1c2c(c(C)c1-c1ccccc1)C1=NC(=O)CN1C(SC)=N2 | % | 107 |
| CSC1=Nc2c(c(C)c(C)n2CCCC(=O)NCCc2cnc[nH]2)C2=NC(=O)CN12 | % | 102 |
